# measured_on: CDKL2 (human)
# experiment_summary: KINOMEscan competition binding
# study_conditions: compound 10.0 µM
measured_attribute: kinase still bound, per cent of control (%)
Enter your answer as a number in %; do not include the unit.

Using known records, supply kinase still bound, per cent of control for CN1C(=O)c2ccccc2N(C)c2nc(Nc3ccc(N4CCC(O)CC4)cc3)ncc21
100

Using known records, supply kinase still bound, per cent of control for CN1CCN(c2ccc(C(=O)Nc3ncc4c(n3)N(C)c3ccccc3C(=O)N4C)cc2)CC1
100

Using known records, supply kinase still bound, per cent of control for CN1C(=O)c2ccccc2N(C)c2nc(NS(=O)(=O)c3ccc(N)cc3)ncc21
100

Using known records, supply kinase still bound, per cent of control for COc1cc(N2CCN(C)CC2)ccc1Nc1ncc2c(n1)N(C)c1ccccc1N(C)C2=O
81

Using known records, supply kinase still bound, per cent of control for COc1cc(N2CCC(O)CC2)ccc1Nc1ncc2c(n1)N1CCc3cccc(c31)C(=O)N2C
100

Using known records, supply kinase still bound, per cent of control for COc1cc(N2CCN(C)CC2)ccc1Nc1ncc2c(n1)N(C)c1sccc1C(=O)N2C
100

Using known records, supply kinase still bound, per cent of control for O=C1NC(=O)/C(=C/c2c[nH]c(=O)c(-c3ccc(N4CCNCC4)nc3)c2)S1
67

Using known records, supply kinase still bound, per cent of control for COc1cc(N2CCN(C)CC2)ccc1Nc1ncc2c(n1)Nc1ccccc1NC2=O
9.5

====

# measured_on: STK35 (human)
# experiment_summary: KINOMEscan competition binding
# study_conditions: compound 10.0 µM
Can you tell me kinase still bound, per cent of control for the items I'm about to list?
Enter your answer as a number in %; do not include the unit.

Using known records, supply kinase still bound, per cent of control for CN1C(=O)c2ccccc2N(C)c2nc(Nc3ccc(N4CCC(O)CC4)cc3)ncc21
96

Using known records, supply kinase still bound, per cent of control for COc1cc(N2CCN(C)CC2)ccc1Nc1ncc2c(n1)Nc1ccccc1NC2=O
100

Using known records, supply kinase still bound, per cent of control for CN1C(=O)c2ccccc2N(C)c2nc(NS(=O)(=O)c3ccc(N)cc3)ncc21
100

Using known records, supply kinase still bound, per cent of control for COc1cc(N2CCN(C)CC2)ccc1Nc1ncc2c(n1)N(C)c1ccccc1N(C)C2=O
100

Using known records, supply kinase still bound, per cent of control for CN1CCN(c2ccc(C(=O)Nc3ncc4c(n3)N(C)c3ccccc3C(=O)N4C)cc2)CC1
100

Using known records, supply kinase still bound, per cent of control for COc1cc(N2CCC(O)CC2)ccc1Nc1ncc2c(n1)N1CCc3cccc(c31)C(=O)N2C
95

Using known records, supply kinase still bound, per cent of control for O=C1NC(=O)/C(=C/c2c[nH]c(=O)c(-c3ccc(N4CCNCC4)nc3)c2)S1
79

Using known records, supply kinase still bound, per cent of control for CS(=O)(=O)Nc1ccc(-c2cncc(/C=C3\SC(=N)NC3=O)c2)cc1
30

Using known records, supply kinase still bound, per cent of control for COc1cc(N2CCN(C)CC2)ccc1Nc1ncc2c(n1)N(C)c1sccc1C(=O)N2C
89

====

# measured_on: FRK (human)
# experiment_summary: KINOMEscan competition binding
# study_conditions: compound 10.0 µM
measured_attribute: kinase still bound, per cent of control (%)
Enter your answer as a number in %; do not include the unit.

Using known records, supply kinase still bound, per cent of control for COc1cc(N2CCN(C)CC2)ccc1Nc1ncc2c(n1)N(C)c1sccc1C(=O)N2C
13

Using known records, supply kinase still bound, per cent of control for CN1CCN(c2ccc(C(=O)Nc3ncc4c(n3)N(C)c3ccccc3C(=O)N4C)cc2)CC1
100

Using known records, supply kinase still bound, per cent of control for CN1C(=O)c2ccccc2N(C)c2nc(Nc3ccc(N4CCC(O)CC4)cc3)ncc21
70

Using known records, supply kinase still bound, per cent of control for COc1cc(N2CCN(C)CC2)ccc1Nc1ncc2c(n1)N1CCC[C@H]1CC(=O)N2
8.2

Using known records, supply kinase still bound, per cent of control for COc1cc(N2CCN(C)CC2)ccc1Nc1ncc2c(n1)N(C(C)C)c1ccccc1C(=O)N2C
31

Using known records, supply kinase still bound, per cent of control for COc1cc(N2CCN(C)CC2)ccc1Nc1ncc2c(n1)N(c1ccccc1)CCC(=O)N2
2.8

Using known records, supply kinase still bound, per cent of control for COc1cc(N2CCN(C)CC2)ccc1Nc1ncc2c(n1)N(C)c1ccccc1C(=O)N2C
2.6

Using known records, supply kinase still bound, per cent of control for COc1cc(N2CCN(C)CC2)ccc1Nc1ncc2c(n1)N(C(C)C)c1ccccc1C(=O)N2
26

Using known records, supply kinase still bound, per cent of control for O=C1NC(=O)/C(=C/c2c[nH]c(=O)c(-c3ccc(N4CCNCC4)nc3)c2)S1
90
